molecular target: Ubiquitin-activating enzyme e1, putative (Leishmania donovani (strain BPK282A1)); assay: Leishmania donovani Ubiquitin Activating Enzyme (LdE1); assay type: functional; set-up: scale not given: direction of the effect not stated beside the values; conditions: 30 µM
Measured potencies and affinities stand elsewhere.
The threshold is inclusive: Percent Effect of exactly 20% counts as true; values below receive false.

Inquiry: # bool: Percent Effect of O=C1CCc2cc(C(=O)NCc3ccc(-n4cncn4)nc3)ccc2N1 >= 20%
Reply text: false

Inquiry: # bool: Percent Effect of CC(C)OCCCN1CCCC(c2nc3ccccc3n2C(C)C)C1 (stereo unspecified) >= 20%
Reply text: false

Inquiry: # bool: Percent Effect of CC(NC(=O)NCCCn1ccnc1)c1ccc2c(c1)CCC(=O)N2 (stereo unspecified) >= 20%
Reply text: true

Inquiry: # bool: Percent Effect of COc1cc(C(=O)Nc2nc(C)no2)ccc1C >= 20%
Reply text: true

Inquiry: # bool: Percent Effect of O=C(N1CCCO1)[C@@]12CCO[C@@H]1CCN(Cc1ccccc1)C2 >= 20%
Reply text: false

Inquiry: # bool: Percent Effect of CCN1CCN(c2ncc(-c3cc(C)no3)c(-c3ccoc3C)n2)CC1 >= 20%
Reply text: false
